Target: T1, TCE-24
T1 construct: anti-CD3 scFv W238A; anti-TROP2 Fab wt; also called 3096
Assay: competition ELISA, peptide titrated vs TCE binding to captured CD3
pIC50: −log10 of the molar value. Ends that are not written are not given here.

>  <BINDER>
GSACLGPEWEVCPY (cysteine pairing not given here; also: biotinylated when captured in ELISA, also called 1596) [Peptide-11]

>  <pIC50>
< 4.00

$$$$
